Data origin, for the record: the nanobody polyreactivity screen of Harvey et al. (2022)

Experiment: yeast display, Sf9 membrane polyspecificity reagent, FACS + sequencing; frameworks hold sequencing errors
reportedEndpoint: polyreactivity (PSR sort gate)

Example entries begin here.
itemSequence	polyreactivity (PSR sort gate)
QVQLVESGGGLVQAGGSLRISCAASGLTFDYYAMGSYRQAPGKERELVAAITSGSITYYADSVKGRFTISRDNAKNTVYLQMNSLKPEDTAVYYCAAKRTSFTARYGYWGLGTQVTVSS	high polyreactivity
QVQLVESGGGLVQAGGSLRLSCAASGSTFIHNAMGWYRQAPRKERELVAAITSGGSTYYADSVKGRFTISRDNAKNTVYLQMNSLKPEDTAVYYCNRGSWRYSTMEYWGQGTQVTVSS	high polyreactivity
QVQLVESGGGLVQAGGSLRLSCAASGSTFNRYAMGWYRPAPGKEWELVAAISGSNGGTDYADSVKGRFTISRDNAKNTVYLQMNSLKPEDTAVYYCAKVRAYTRLGLTVSMDYWGQGTQVTVSS	high polyreactivity
QVQLVESGGGLVQAGGSLRLSCDASGRIYGYNAIAWYRQAPGKERELVAAITNGGSTNYADSVKGRFTISRDNAKNTVFLQMNSLKPDETAVYYCAVKWYAPGHDYWGQGTQVTVSS	low polyreactivity
QVQIEESGGGLVQAGGSLRLSCAASGITFYWYARGWYRQAPVTERELVAAITRSGSSTYYADSVKGRFTISRDNAKNTVYLQMYSLKPEDTAVDYCAALPYKPYYDAYDYWGQGTQVTVSS	high polyreactivity
QVQLVESGGGLVQAGGSLRLSCAASYAMGWYRQAPGKERELVATITSGGVSTYYADSVKGRFTISRDNAKNTVYLQMNSLKPEDTAVYYCAATASHSTSADYDYWGQGTQVTVSS	low polyreactivity

Inquiry: Fill in: polyreactivity (PSR sort gate) of QDQLVESGGGLVQAGGSLRLSCAASGSTLRGYAMGWYRQAPGKEREFVASITSSGSRTYADSVKGRFTISRDNAKNTVYLQMNSLKPEDTAVYYCAANRWPLKGYTSRYWGYWYNYWGQGTQVTVSS is ___
Reply text: high polyreactivity

Inquiry: Another sequence to check: QVQLVESGGGLVQARGSLRLSSAASGSTFYDYAMGWYRHAPGKERELVAAISGNGDSTYYADSVKGRFTISRDNAKNTVYLQMNSLNPEDTAVYYCAAYLGWGYDYWGQGTQVTVSS
Reply text: low polyreactivity

Inquiry: Another sequence to check: QVQIEESGGGLVQAGGSHRLSCAASGRTFGGNAMGRYRQAPRKERELVAAISISGGSNTYYADSVKGRFTISRDTGKNTVYLQMNSLKPEDTAVYFCAARSTVYISSDYWGQGTQVTVSS
Reply text: low polyreactivity

Inquiry: Another sequence to check: QVQLVESRGGLVQAGGSLRLSCAASGSILVRYAMGWDRQAPGKERELVAAITGTSGGTYYADSVKGRFTISRDNAKNTVYLQMNSLKPEDTAVYYCNADGGSGAYLDLTITDYDYWGQGTQVTVSS
Reply text: low polyreactivity

Inquiry: Another sequence to check: QVQLVESGGGLLQAGGSLRLSCAASGRTLWIYAMGWYRQAPGKERELVASITTRGGSTYYADSVKGRFTISRDNAKNTVYLQMNSLKPEDTAVYYCARVSGARYTSYDYWGQGTQVTVSS
Reply text: high polyreactivity

Inquiry: Another sequence to check: QVQLVESGGGLVQAGGSLRLSCAASGFIFHTYAMGWYRQAPGKEREFVAAISGGTSSTYYADSVKGRFTISRDNAKNTVYLQMNSLKPEDTAVYYCAARSRRGGYPRYYYWGQGTQVTVSS
Reply text: high polyreactivity

----------
Experiment: yeast display, Sf9 membrane polyspecificity reagent, FACS + sequencing; frameworks hold sequencing errors
reportedEndpoint: polyreactivity (PSR sort gate)

Example entries begin here.
itemSequence	polyreactivity (PSR sort gate)
QVQLVESGGGLVQAGGSLRLSCAASGRIFRYYAMGWYRQAPGKERELVATISRSGGSTFYADSVKGRFTISRDNAKNTVYLQMKSLKPEDTAVYYCAADYYSYVVGRIYYWGQGTQVTVSS	high polyreactivity
QDHLVESGGGLVHAGGRLRLSCAASVRIFTAYAMGWYRQAPGTERELVPAISSGDSTYSADSVKGRFTISRDNAKNSVYLQMNSLKPVVTAVYSCATGVYPDFEYVSWGQGTQVTGSS	low polyreactivity
QVQLVESGGGLVQAGCSLGLSCAASGRIVDYKAMGWYRQAPGKEWELVATLTSSSVRTHYPDSLKGRFSISRDNAKNTVYLQMNSLNPEDTSVYYWNAAYGPRYPRRYDYWGQGTQVTVSS	low polyreactivity
QVQLVESGGGLVQAGGSLRLICAASGLIFYKYAMGWYRQAPGKERELVAAITSGGSTNYADSVKGRFTISRDNAKNSVYLQMNSLKPEVTAVYYCNADYNHYLVVRWWYPPVDYWGQGSQVTVSS	low polyreactivity

Inquiry: Fill in: polyreactivity (PSR sort gate) of QVQLVESGGGLVQAGGSLRLSCASSGRTFTYYTMGWYRQAPGKERELVAAISSSGGSTYYADSVKGRFTISRDNAKNTVYLQMNSLKPEDTAVYYCAAVRGRLLPPYGYWGQGTQVTVSS is ___
Reply text: high polyreactivity

Inquiry: Another sequence to check: QVQLVESGGGFVQAGGSLRLSCAASGFTFYKYAMGWYRQAPGQERELVAAITRGGGSTYYADSVKGRFTISRDHAQNPVYLQKNRLIPEDPAVYYCNVLYGYGTDVSRVDYWGQGTQVTVSS
Reply text: high polyreactivity

Inquiry: Another sequence to check: QVQLVESGGGLVQAGGSLRLSCAASGRIFRVYAMGWYRQAPGKETELVAAISRTGGSTYYADSVKGRFTISRDNAKNTVYLQMNSLKPEDTAVYYCAALVNGNFPTVDYWGQGTQVTVSS
Reply text: high polyreactivity

----------
Assay: yeast display, Sf9 membrane polyspecificity reagent, FACS + sequencing; frameworks hold sequencing errors
reportedEndpoint: polyreactivity (PSR sort gate)

itemSequence	recordedResult
QVQLVESGGGLVQAGGSLRLSCAASGFIFTYYAMGWYRQAPGKERELVAAISSRGTSTYYADSVKGRFTISRDNAKNTVYLQMNSLKPEDTAVYYCAAGKPKIPDDDYWGQGTQVTVSS	high polyreactivity
QVQLVESGGGLVQAGGSLRLSCAPSGSTFYKYVMGWYRQAPGKERELVAAISQGGSSTYYADSVKGRFTISRDNAKYTVYVLMNSLKPEDTAVYYCAAQYWWWSRFEYDSWGQGTQVTVSS	low polyreactivity
QVQLVESGGGLVQAGGSLRLSCAASGFTFPVYTMGWYSQAPGKERELVAAISTAGAGTYYADSVKGRFTISRDNAKNTVYLQMNSLKPEDTAVYYCAAYKRGRPEMDYWGQGTQVTVSS	high polyreactivity
QVQLVESGGGLVQAGGSLRLSCAASGRTFLYYAKGWYRQAPGKERELGAAISSGGSTNYADSVKGRFTISRDNAKNTVYLQMNSLKPEDTAVYYCNADYTSRDTSDVIYEYDYWGQGTQVTVSS	low polyreactivity

Inquiry: Fill in: polyreactivity (PSR sort gate) of QVHLVESGGGLVQAGGSLRLSCAASGSTFAKNAMGWYRQAPGKERELVAAITRSAGSTYYADSVKGRFTISRDNAKNTVYLQMNSLKPEDTAVYYCDRRVSGTPWYGYWGQGTQVTVSS is ___
Reply text: high polyreactivity

----------
Assay: yeast display, Sf9 membrane polyspecificity reagent, FACS + sequencing; frameworks hold sequencing errors
reportedEndpoint: polyreactivity (PSR sort gate)

itemSequence	recordedResult
QVQLQESGGGLVQAGGSLRLSCAASGNISVTGFMGWYRQAPGKERELVASIGIGATTYYADSVKGRFSISRDNAKNTVYLQMNSLKPEDTAVYYCAARYLYYAYSYWGQGTQVTVSS	low polyreactivity
QFQLVESGGGLVQAGGSHRLSCAASGRIFSYYAMGWYRQAPGNERELVATITSGGNTNYADSVKGRFTISLDNAKNTVYLQMNSLKPEDTAVYYCKAAERQWYDAYDYWGQGTQVTVSS	low polyreactivity

----------
Assay: yeast display, Sf9 membrane polyspecificity reagent, FACS + sequencing; frameworks hold sequencing errors
reportedEndpoint: polyreactivity (PSR sort gate)

Example entries begin here.
itemSequence	polyreactivity (PSR sort gate)
QLQHVESWGGLVQAGGSLRLSCAASGRTFRANDKRSYRQAPGKQSELVAAISQSGGSRYYADSVKGRFTISRDNAKNTVYLQLNSLKPEDTAVYYCNALGRISNHTLYDYWGQGTQVTVSS	low polyreactivity
QVQLVESGGGLVQAGGSLRLSCAASGSIFEGNGMGWYRPAPGKERELVAAITFRSGSTYYADSVKGRFTISRDNAKNTVYLQMNSLKPEDTAVYYCAADEYYQVSAYDYWGQGTQVTVSS	low polyreactivity
QVQLVESGGGLVQAGGSLRLSCAASGFTSKGYAMGWYRQAPGKERELVATIRSRGGGTYYADSVKGRFTISRDNAKNTVYLQMNSLKPEDTAVYYCAAERKNKYDYWGQGTQVTVSS	high polyreactivity
QVQLVESGGGLVQAGGSLRLSCAASGFIFGRYTMGWYRQAPGKERELVAAITYSGNTYYADSVKGRFTISRDKAKTTVYVQMNSLKPEDTALYYCNAYGANFRAFRNAYKYWGQGTQVTVSS	high polyreactivity
QVQLVESGGGLVQAGGSLRLICAASGLILKNYAMGWYRQAPGKERELVAAITRSGGSTYYADSVKGRFTISRDNAKNTVYLQMNSLKPEDTAVYDCAARNPSGKGRYDYWGQGTQVTVSS	high polyreactivity

Inquiry: Fill in: polyreactivity (PSR sort gate) of QVQLEESGGGLVQAGGSLRLICAASGSIFYQYPMGWYRQAPGKERELVAGITWSGGSTYYADSVKGRFTISRDNAKNTVYLQMNSLKPEDTAVYYCAAQYFCYVYSYDYWGQGTQVTVSS is ___
Reply text: high polyreactivity
